Provide the reported Loewe Volume of each item.
- System: panel of breast cancer cell lines
- run description: Compound A with targeted agents and chemotherapies, 72-hour in vitro proliferation assays
- Assay type: cell-based
- settings: HCC1806; compound A × partner, 72-hour proliferation
Where a name gives a salt, the structure may show the parent alone.
Respond using a number only.

Just so you know, measured Loewe Volume for CN(C)C(=O)c1cc2cnc(Nc3ccc(N4CCNCC4)cn3)nc2n1C1CCCC1 [LEE011] came out at −4.05

Just so you know, measured Loewe Volume for CC(C)NC[C@@H](C(=O)N1CCN(c2ncnc3c2[C@H](C)C[C@H]3O)CC1)c1ccc(Cl)cc1 [GDC-0068] came out at 2.14

Just so you know, measured Loewe Volume for Nc1ccn([C@@H]2O[C@H](CO)[C@@H](O)C2(F)F)c(=O)n1 [Gemcitabine Hydrochloride] came out at 17.74

Just so you know, measured Loewe Volume for CO[C@H]1C[C@@H]2CC[C@@H](C)[C@@](O)(O2)C(=O)C(=O)N2CCCC[C@H]2C(=O)O[C@H]([C@H](C)C[C@@H]2CC[C@@H](OCCO)[C@H](OC)C2)CC(=O)[C@H](C)/C=C(\C)[C@@H](O)[C@@H](OC)C(=O)[C@H](C)C[C@H](C)/C=C/C=C/C=C/1C [Everolimus] came out at 5.59

Just so you know, measured Loewe Volume for CCN1CCN(Cc2ccc(Nc3ncc(F)c(-c4cc(F)c5nc(C)n(C(C)C)c5c4)n3)nc2)CC1 [Abemaciclib] came out at 3.10

Just so you know, measured Loewe Volume for Cc1c(-c2ccc(N3CCc4cccc(C(=O)Nc5nc6ccccc6s5)c4C3)nc2C(=O)O)cnn1CC12CC3CC(CC(C3)C1)C2 [Compound A-1331852] came out at 85.91

---

Provide the reported HSA volume of each item.
- System: panel of breast cancer cell lines
- run description: Compound A with targeted agents and chemotherapies, 72-hour in vitro proliferation assays
- Assay type: cell-based
- settings: HCC1806; compound A × partner, 72-hour proliferation
Respond using a number only.

Just so you know, measured HSA volume for CCN1CCN(Cc2ccc(Nc3ncc(F)c(-c4cc(F)c5nc(C)n(C(C)C)c5c4)n3)nc2)CC1 [Abemaciclib] came out at 0.30

Just so you know, measured HSA volume for CC1(C)CCC(c2ccc(Cl)cc2)=C(CN2CCN(c3ccc(C(=O)NS(=O)(=O)c4ccc(N[C@H](CCN5CCOCC5)CSc5ccccc5)c(S(=O)(=O)C(F)(F)F)c4)cc3)CC2)C1 [ABT-263] came out at 46.37

Just so you know, measured HSA volume for CN(C)C(=O)c1cc2cnc(Nc3ccc(N4CCNCC4)cn3)nc2n1C1CCCC1 [LEE011] came out at −8.72

Just so you know, measured HSA volume for CO[C@H]1C[C@@H]2CC[C@@H](C)[C@@](O)(O2)C(=O)C(=O)N2CCCC[C@H]2C(=O)O[C@H]([C@H](C)C[C@@H]2CC[C@@H](OCCO)[C@H](OC)C2)CC(=O)[C@H](C)/C=C(\C)[C@@H](O)[C@@H](OC)C(=O)[C@H](C)C[C@H](C)/C=C/C=C/C=C/1C [Everolimus] came out at 2.88

Just so you know, measured HSA volume for N.N.[Cl][Pt][Cl] [Cisplatin] came out at 3.81

Just so you know, measured HSA volume for O=C(c1cc(Cc2n[nH]c(=O)c3ccccc23)ccc1F)N1CCN(C(=O)C2CC2)CC1 [Olaparib] came out at 8.26

Just so you know, measured HSA volume for CC(=O)c1c(C)c2cnc(Nc3ccc(N4CCNCC4)cn3)nc2n(C2CCCC2)c1=O [PD-0332991] came out at −4.31

Just so you know, measured HSA volume for N.N.O=C([O-])C1(C(=O)[O-])CCC1.[Pt+2] [Carboplatin] came out at 4.44

Just so you know, measured HSA volume for Cc1c(-c2ccc(N3CCc4cccc(C(=O)Nc5nc6ccccc6s5)c4C3)nc2C(=O)O)cnn1CC12CC3CC(CC(C3)C1)C2 [Compound A-1331852] came out at 85.67

Just so you know, measured HSA volume for C[C@]12CC[C@@H]3c4ccc(O)cc4C[C@@H](CCCCCCCCC[S+]([O-])CCCC(F)(F)C(F)(F)F)[C@H]3[C@@H]1CC[C@@H]2O (stereo partly shown) [Fulvestrant] came out at −0.86

---

- Test system: panel of breast cancer cell lines
- run description: Compound A with targeted agents and chemotherapies, 72-hour in vitro proliferation assays
- Format: cell-based
- settings: MDA-MB-453 cells; Compound A × partner agent; 72-hour proliferation
reported endpoint: Synergy Score

Just so you know, measured Synergy Score for C[C@]12CC[C@@H]3c4ccc(O)cc4C[C@@H](CCCCCCCCC[S+]([O-])CCCC(F)(F)C(F)(F)F)[C@H]3[C@@H]1CC[C@@H]2O (some centres unmarked) [Fulvestrant] came out at 4.79

Just so you know, measured Synergy Score for N.N.O=C([O-])C1(C(=O)[O-])CCC1.[Pt+2] [Carboplatin] came out at 10.04

Just so you know, measured Synergy Score for N.N.[Cl][Pt][Cl] [Cisplatin] came out at 9.66

Just so you know, measured Synergy Score for CC(=O)O[C@@]12CO[C@@H]1C[C@H](O)[C@@]1(C)C(=O)[C@H](O)C3=C(C)[C@@H](OC(=O)[C@H](O)[C@@H](NC(=O)OC(C)(C)C)c4ccccc4)C[C@@](O)([C@@H](OC(=O)c4ccccc4)[C@H]21)C3(C)C [Docetaxel] came out at 44.90

Just so you know, measured Synergy Score for CO[C@H]1C[C@@H]2CC[C@@H](C)[C@@](O)(O2)C(=O)C(=O)N2CCCC[C@H]2C(=O)O[C@H]([C@H](C)C[C@@H]2CC[C@@H](OCCO)[C@H](OC)C2)CC(=O)[C@H](C)/C=C(\C)[C@@H](O)[C@@H](OC)C(=O)[C@H](C)C[C@H](C)/C=C/C=C/C=C/1C [Everolimus] came out at 5.75

---

- Tested on: panel of breast cancer cell lines
- run description: Compound A with targeted agents and chemotherapies, 72-hour in vitro proliferation assays
- Assay type: cell-based
- settings: CAL-85-1 cell line; compound A × partner; 72-hour proliferation
Provide the reported Loewe Volume of each item.
Respond using a number only.

Just so you know, measured Loewe Volume for CCOc1cc2ncc(C#N)c(Nc3ccc(OCc4ccccn4)c(Cl)c3)c2cc1NC(=O)/C=C/CN(C)C [Neratinib] came out at 16.51

Just so you know, measured Loewe Volume for N.N.[Cl][Pt][Cl] [Cisplatin] came out at 4.66

Just so you know, measured Loewe Volume for C[C@]12CC[C@@H]3c4ccc(O)cc4C[C@@H](CCCCCCCCC[S+]([O-])CCCC(F)(F)C(F)(F)F)[C@H]3[C@@H]1CC[C@@H]2O (stereo partly shown) [Fulvestrant] came out at −0.68

Just so you know, measured Loewe Volume for N.N.O=C([O-])C1(C(=O)[O-])CCC1.[Pt+2] [Carboplatin] came out at 3.42

---

- System: panel of breast cancer cell lines
- run description: Compound A with targeted agents and chemotherapies, 72-hour in vitro proliferation assays
- Type: cell-based
- settings: BT-20 cell line; compound A × partner; 72-hour proliferation
Structures can show the parent of a compound that is named as a salt.
# Best CI binned as low range: < 0.2; mid range: ≥ 0.2 and < 0.8; high range: ≥ 0.8

Problem: Which Best CI band matches CC(=O)O[C@H]1C(=O)[C@@]2(C)[C@H]([C@H](OC(=O)c3ccccc3)[C@]3(O)C[C@H](OC(=O)[C@H](O)[C@@H](NC(=O)c4ccccc4)c4ccccc4)C(C)=C1C3(C)C)[C@]1(OC(C)=O)CO[C@@H]1C[C@@H]2O [Paclitaxel, reference compound] ?
Solution: low range

Problem: Which Best CI band matches O=C(c1cc(Cc2n[nH]c(=O)c3ccccc23)ccc1F)N1CCN(C(=O)C2CC2)CC1 ?
Solution: high range

Problem: Which Best CI band matches CC1(C)CCC(c2ccc(Cl)cc2)=C(CN2CCN(c3ccc(C(=O)NS(=O)(=O)c4ccc(N[C@H](CCN5CCOCC5)CSc5ccccc5)c(S(=O)(=O)C(F)(F)F)c4)cc3)CC2)C1 ?
Solution: low range

Problem: Which Best CI band matches CC(C)NC[C@@H](C(=O)N1CCN(c2ncnc3c2[C@H](C)C[C@H]3O)CC1)c1ccc(Cl)cc1 ?
Solution: low range

Problem: Which Best CI band matches CCOc1cc2ncc(C#N)c(Nc3ccc(OCc4ccccn4)c(Cl)c3)c2cc1NC(=O)/C=C/CN(C)C ?
Solution: low range

Problem: Which Best CI band matches Cn1ncnc1[C@H]1c2n[nH]c(=O)c3cc(F)cc(c23)N[C@@H]1c1ccc(F)cc1 ?
Solution: mid range

Problem: Which Best CI band matches CS(=O)(=O)CCNCc1ccc(-c2ccc3ncnc(Nc4ccc(OCc5cccc(F)c5)c(Cl)c4)c3c2)o1 [Lapatinib Ditosylate] ?
Solution: low range

Problem: Which Best CI band matches N.N.[Cl][Pt][Cl] [Cisplatin] ?
Solution: high range

Problem: Which Best CI band matches Cc1c(-c2ccc(N3CCc4cccc(C(=O)Nc5nc6ccccc6s5)c4C3)nc2C(=O)O)cnn1CC12CC3CC(CC(C3)C1)C2 ?
Solution: low range

Problem: Which Best CI band matches CC1(C)CCC(CN2CCN(c3ccc(C(=O)NS(=O)(=O)c4ccc(NCC5CCOCC5)c([N+](=O)[O-])c4)c(Oc4cnc5[nH]ccc5c4)c3)CC2)=C(c2ccc(Cl)cc2)C1 ?
Solution: mid range

Problem: Which Best CI band matches CC(=O)c1c(C)c2cnc(Nc3ccc(N4CCNCC4)cn3)nc2n(C2CCCC2)c1=O ?
Solution: high range

Problem: Which Best CI band matches CC/C(=C(\c1ccccc1)c1ccc(OCCN(C)C)cc1)c1ccccc1 [Tamoxifen Citrate] ?
Solution: high range

Problem: Which Best CI band matches Nc1ccn([C@@H]2O[C@H](CO)[C@@H](O)C2(F)F)c(=O)n1 [Gemcitabine Hydrochloride] ?
Solution: mid range

Problem: Which Best CI band matches N.N.O=C([O-])C1(C(=O)[O-])CCC1.[Pt+2] ?
Solution: mid range
